# measured target: T1, Myc-LGR5 (human LGR5, predicted mature form aa21-907, N-terminal Myc tag), expressed on HEK293 cells (human, UniProt O75473 22-907)
# T1 sequence: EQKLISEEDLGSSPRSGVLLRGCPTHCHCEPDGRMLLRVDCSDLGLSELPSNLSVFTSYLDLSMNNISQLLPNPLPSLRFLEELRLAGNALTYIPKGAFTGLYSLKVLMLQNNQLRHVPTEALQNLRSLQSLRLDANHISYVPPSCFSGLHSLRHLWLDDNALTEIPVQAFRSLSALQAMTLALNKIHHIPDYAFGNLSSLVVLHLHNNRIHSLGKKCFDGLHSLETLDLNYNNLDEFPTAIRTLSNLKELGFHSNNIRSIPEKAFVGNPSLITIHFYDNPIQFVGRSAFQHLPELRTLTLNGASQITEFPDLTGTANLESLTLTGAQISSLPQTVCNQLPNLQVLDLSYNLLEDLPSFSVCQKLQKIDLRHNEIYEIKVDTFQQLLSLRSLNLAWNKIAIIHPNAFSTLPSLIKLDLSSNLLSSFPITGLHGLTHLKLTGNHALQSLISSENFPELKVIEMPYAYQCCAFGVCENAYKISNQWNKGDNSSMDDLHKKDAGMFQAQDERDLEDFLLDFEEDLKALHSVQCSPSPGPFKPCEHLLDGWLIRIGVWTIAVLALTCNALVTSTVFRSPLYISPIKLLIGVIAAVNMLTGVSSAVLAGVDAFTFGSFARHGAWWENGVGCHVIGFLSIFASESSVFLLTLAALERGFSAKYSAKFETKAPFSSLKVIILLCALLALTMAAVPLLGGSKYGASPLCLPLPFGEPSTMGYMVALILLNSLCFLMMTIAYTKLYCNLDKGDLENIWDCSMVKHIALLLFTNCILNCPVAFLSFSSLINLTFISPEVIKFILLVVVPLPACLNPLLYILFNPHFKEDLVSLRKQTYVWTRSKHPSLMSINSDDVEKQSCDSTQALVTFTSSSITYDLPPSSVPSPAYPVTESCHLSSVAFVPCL
# protocol description: cell-based or functional assay
metric name: potency (EC50, nM), β-catenin reporter (Super 8x TOPFlash) with Wnt3a CM
Just the number in nM, nothing appended.

recombinant human RSPO2 (ligand, UniProt Q6UXX9 22-243, looked up, Bought from R&D Systems; also called R-spondin 2) QGNRWRRSKRASYVSNPICKGCLSCSKDNGCSRCQQKLFFFLRREGMRQYGECLHSCPSGYYGHRAPDMNRCARCRIENCDSCFSKDFCTKCKVGFYLHRGRCFDECPDGFAPLEETMECVEGCEVGHWSEWGTCSRNNRTCGFKWGLETRTRQIVKKPVKDTILCPTIAESRRCKMTMRHCPGGKRTPKAKEKRNKKKKRKLIERAQEQHSVFLATDRANQ | 0.001
recombinant human RSPO4 (ligand, Bought from R&D Systems; also called R-spondin 4) LNRRKKQVGTGLGGNCTGCIICSEENGCSTCQQRLFLFIRREGIRQYGKCLHDCPPGYFGIRGQEVNRCKKCGATCESCFSQDFCIRCKRQFYLYKGKCLPTCPPGTLAHQNTRECQGECELGPWGGWSPCTHNGKTCGSAWGLESRVREAGRAGHEEAATCQVLSESRKCPIQRPCPGERSPGQKKGRKDRRPRKDRKLDRRLDVRPRQPGLQP | 0.4

Ask: Param item = recombinant human RSPO3 (ligand, Bought from R&D Systems; also called R-spondin 3) QNASRGRRQRRMHPNVSQGCQGGCATCSDYNGCLSCKPRLFFALERIGMKQIGVCLSSCPSGYYGTRYPDINKCTKCKADCDTCFNKNFCTKCKSGFYLHLGKCLDNCPEGLEANNHTMECVSIVHCEVSEWNPWSPCTKKGKTCGFKRGTETRVREIIQHPSAKGNLCPPTNETRKCTVQRKKCQKGERGKKGRERKRKKPNKGESKEAIPDSKSLESSKEIPEQRENKQQQKKRKVQDKQKSVSVSTVH ; retrieve measured potency (EC50, nM), β-catenin reporter (Super 8x TOPFlash) with Wnt3a CM.
Reply: 0.01

Ask: Now this one: recombinant human RSPO1 (ligand, UniProt Q2MKA7 21-263, looked up, Bought from R&D Systems; also called R-spondin 1) SRGIKGKRQRRISAEGSQACAKGCELCSEVNGCLKCSPKLFILLERNDIRQVGVCLPSCPPGYFDARNPDMNKCIKCKIEHCEACFSHNFCTKCKEGLYLHKGRCYPACPEGSSAANGTMECSSPAQCEMSEWSPWGPCSKKQQLCGFRRGSEERTRRVLHAPVGDHAACSDTKETRRCTVRRVPCPEGQKRRKGGQGRRENANRNLARKESKEAGAGSRRRKGQQQQQQQGTVGPLTSAGPA
Reply: 0.008
